Where a SMILES comes first, the peptide text is derived from it. [ ]: non-standard residue; d: D form. The star is where a group is joined. X1 = Cc1ccc(Nc2ncc3c(n2)N(C)C(=O)N(c2cc(C(=O)*)ccc2C)C3)cn1; Aib = CC(C)(N)C(=O)O
Here's what we have: IC50 numbers for c-Src (Homo sapiens).

molecule | IC50 / nM
CC1=N[C@@H](Cc2ccccc2)C(=O)Nc2cc(C(=O)Nc3ccc(C)c(N4Cc5cnc(Nc6ccc(C)nc6)nc5N(C)C4=O)c3)ccc21 [11k] | 27.1
CC[C@H](C)[C@H](NC(=O)c1ccc(C)c(N2Cc3cnc(Nc4ccc(C)nc4)nc3N(C)C2=O)c1)C(=O)N1CCC[C@H]1C(=O)NC(C)(C)C(=O)N[C@@H](CC(C)C)C(=O)N(C)C [7p] (X1-IP[Aib]L-NMe2) | 329
Cc1ccc(Nc2ncc3c(n2)N(C)C(=O)N(c2cc(NC(=O)c4ccc5c(c4)N(CC(C)C)C(=O)[C@H](CC(C)C)N=C5c4ccccc4)ccc2C)C3)cn1 [11j] | 461

----------
target: Abl1 (Homo sapiens, UniProt P00519)
Sequence (P00519 whole entry): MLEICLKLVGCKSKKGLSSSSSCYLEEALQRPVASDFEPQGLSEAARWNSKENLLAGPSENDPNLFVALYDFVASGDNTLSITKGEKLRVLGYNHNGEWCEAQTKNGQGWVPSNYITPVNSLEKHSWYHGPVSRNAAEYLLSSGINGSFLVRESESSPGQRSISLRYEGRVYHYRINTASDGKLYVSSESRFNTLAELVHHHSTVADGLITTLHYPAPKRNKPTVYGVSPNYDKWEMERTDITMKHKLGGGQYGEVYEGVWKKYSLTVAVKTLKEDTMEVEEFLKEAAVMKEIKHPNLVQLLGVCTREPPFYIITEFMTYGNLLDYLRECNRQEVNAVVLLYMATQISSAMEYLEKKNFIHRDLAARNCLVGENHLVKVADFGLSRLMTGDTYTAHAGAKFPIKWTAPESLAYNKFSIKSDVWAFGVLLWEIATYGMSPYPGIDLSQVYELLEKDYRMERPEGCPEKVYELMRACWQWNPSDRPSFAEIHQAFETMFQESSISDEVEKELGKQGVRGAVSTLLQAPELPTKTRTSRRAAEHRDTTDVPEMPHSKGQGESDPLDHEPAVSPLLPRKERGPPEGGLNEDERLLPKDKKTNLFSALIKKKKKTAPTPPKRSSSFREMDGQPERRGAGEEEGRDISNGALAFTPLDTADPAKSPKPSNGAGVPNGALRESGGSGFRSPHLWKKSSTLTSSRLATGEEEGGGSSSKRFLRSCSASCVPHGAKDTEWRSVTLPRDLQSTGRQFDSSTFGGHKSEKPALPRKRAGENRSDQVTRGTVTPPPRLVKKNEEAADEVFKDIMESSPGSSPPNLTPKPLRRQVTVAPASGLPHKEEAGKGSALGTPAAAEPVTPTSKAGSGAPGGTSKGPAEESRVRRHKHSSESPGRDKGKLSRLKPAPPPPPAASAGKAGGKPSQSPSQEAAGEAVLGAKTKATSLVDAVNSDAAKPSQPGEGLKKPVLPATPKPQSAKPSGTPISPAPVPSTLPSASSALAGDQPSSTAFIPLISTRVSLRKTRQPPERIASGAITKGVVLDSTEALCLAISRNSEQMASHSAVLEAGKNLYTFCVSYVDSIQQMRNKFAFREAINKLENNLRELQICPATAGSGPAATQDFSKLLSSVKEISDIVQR
Where a SMILES comes first, the peptide text is derived from it. [ ]: non-standard residue; d: D form. The star is where a group is joined. X1 = Cc1ccc(Nc2ncc3c(n2)N(C)C(=O)N(c2cc(C(=O)*)ccc2C)C3)cn1; Aib = CC(C)(N)C(=O)O
endpoint.label: log10 IC50 (log10 of the value in nM)

molecule | experimental.target | log10 IC50
Cc1ccc(Nc2ncc3c(n2)N(C)C(=O)N(c2cc(NC(=O)c4ccc5c(c4)N(Cc4ccccc4)C(=O)[C@H](C)N=C5c4ccccc4)ccc2C)C3)cn1 [11d] | Abl1 (Homo sapiens, UniProt P00519) | 1.38
Cc1ccc(Nc2ncc3c(n2)N(C)C(=O)N(c2cc(NC(=O)c4ccc5c(c4)N(Cc4ccccc4)C(=O)[C@H](CC(C)C)N=C5c4ccccc4)ccc2C)C3)cn1 [11b] | Abl1 (Homo sapiens, UniProt P00519) | 2.66
CC[C@@H](C)[C@H]1N=C(c2ccccc2)c2ccc(C(=O)Nc3ccc(C)c(N4Cc5cnc(Nc6ccc(C)nc6)nc5N(C)C4=O)c3)cc2NC1=O [11e] | Abl1 (Homo sapiens, UniProt P00519) | 1.74
Cc1ccc(Nc2ncc3c(n2)N(C)C(=O)N(c2cc(C(=O)N[C@H](C(=O)N4CCC[C@@H]4C(=O)NC(C)(C)C(=O)N[C@@H](CC(C)C)C(=O)N(C)C)C(C)C)ccc2C)C3)cn1 [7b] (X1-V[dP][Aib]L-NMe2) | Abl1 (Homo sapiens, UniProt P00519) | 2.50
Cc1ccc(Nc2ncc3c(n2)N(C)C(=O)N(c2cc(C(=O)N[C@H](C(=O)N4CCC[C@H]4C(=O)NC(C)(C)C(=O)N[C@@H](CC(C)C)C(=O)N(C)C)C(C)C)ccc2C)C3)cn1 [7a] (X1-VP[Aib]L-NMe2) | Abl1 (Homo sapiens, UniProt P00519) | 2.58
Cc1ccc(Nc2ncc3c(n2)N(C)C(=O)N(c2cc(NC(=O)c4ccc5c(c4)NC(=O)[C@H](C)N=C5c4ccccc4)ccc2C)C3)cn1 [11c] | Abl1 (Homo sapiens, UniProt P00519) | 0.67
Cc1ccc(Nc2ncc3c(n2)N(C)C(=O)N(c2cc(NC(=O)c4ccc5c(c4)NC(=O)[C@H](Cc4ccccc4)N=C5c4ccccc4)ccc2C)C3)cn1 [11a] | Abl1 (Homo sapiens, UniProt P00519) | 2.28

----------
Measured pIC50 accompanies every entry in the list below.
target: Lck (Homo sapiens, UniProt P06239); construct: purchased Reaction Biology Corp; test: In vitro kinase assay (IC50); assay type: biochemical
Sequence (P06239 whole entry): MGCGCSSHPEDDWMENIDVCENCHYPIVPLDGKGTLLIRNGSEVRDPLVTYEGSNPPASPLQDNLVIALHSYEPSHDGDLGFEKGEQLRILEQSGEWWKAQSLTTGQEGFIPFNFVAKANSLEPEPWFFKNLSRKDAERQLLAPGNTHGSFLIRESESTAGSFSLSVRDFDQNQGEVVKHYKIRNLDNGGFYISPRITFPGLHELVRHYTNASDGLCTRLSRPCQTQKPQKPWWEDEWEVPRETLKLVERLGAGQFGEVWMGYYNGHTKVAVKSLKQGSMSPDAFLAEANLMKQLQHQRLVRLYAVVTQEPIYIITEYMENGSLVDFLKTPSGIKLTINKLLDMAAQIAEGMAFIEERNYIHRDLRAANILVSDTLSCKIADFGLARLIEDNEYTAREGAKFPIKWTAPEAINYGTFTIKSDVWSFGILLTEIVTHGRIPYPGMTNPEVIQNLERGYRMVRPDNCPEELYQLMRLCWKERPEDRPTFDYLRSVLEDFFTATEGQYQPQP
pIC50: −log10 of the molar value. Where a SMILES comes first, the peptide text is derived from it. [ ]: non-standard residue; d: D form. The star is where a group is joined. X1 = Cc1ccc(Nc2ncc3c(n2)N(C)C(=O)N(c2cc(C(=O)*)ccc2C)C3)cn1; Aze = O=C(O)[C@@H]1CCN1; Aib = CC(C)(N)C(=O)O

compound | pIC50
Cc1ccc(Nc2ncc3c(n2)N(C)C(=O)N(c2cc(C(=O)N[C@@H](Cc4ccccc4)C(=O)N4CCC[C@@H]4C(=O)N[C@H](C(=O)N[C@H](C)c4ccccc4)C(C)C)ccc2C)C3)cn1 | 6.89
C=CCN1C(=O)[C@H](CC(C)C)N=C(c2ccccc2)c2ccc(C(=O)Nc3ccc(C)c(N4Cc5cnc(Nc6ccc(C)nc6)nc5N(C)C4=O)c3)cc21 [11i] | 7.31
Cc1ccc(Nc2ncc3c(n2)N(C)C(=O)N(c2cc(C(=O)N[C@H](C(=O)N4CC[C@H]4C(=O)NC(C)(C)C(=O)N[C@@H](CC(C)C)C(=O)N(C)C)C(C)C)ccc2C)C3)cn1 [7k] (X1-V[Aze][Aib]L-NMe2) | 6.52

----------
Target: Lck (Homo sapiens, UniProt P06239)
Construct: purchased Reaction Biology Corp
Assay: In vitro kinase assay (IC50)
Assay type: biochemical
Protocol: Full panel kinase profiling and kinase IC50 measurement were performed by using Reaction Biology Corp. (San Diego, USA).
Where a SMILES comes first, the peptide text is derived from it. [ ]: non-standard residue; d: D form. The star is where a group is joined. X1 = Cc1ccc(Nc2ncc3c(n2)N(C)C(=O)N(c2cc(C(=O)*)ccc2C)C3)cn1; Chg = N[C@H](C(=O)O)C1CCCCC1; Pip = O=C(O)[C@@H]1CCCCN1; Ac4c = NC1(C(=O)O)CCC1; Aib = CC(C)(N)C(=O)O
endpoint.label: log10(IC50) (log10 of the value in µM)

molecule | log10(IC50)
Cc1ccc(Nc2ncc3c(n2)N(C)C(=O)N(c2cc(C(=O)N[C@@H](C)C(=O)N4CCC[C@H]4C(=O)NC(C)(C)C(=O)N[C@H](C(=O)N(C)C)C(C)C)ccc2C)C3)cn1 [7m] (X1-AP[Aib]V-NMe2) | -0.42
CC1=N[C@@H](CC(C)C)C(=O)N(C)c2cc(C(=O)Nc3ccc(C)c(N4Cc5cnc(Nc6ccc(C)nc6)nc5N(C)C4=O)c3)ccc21 [11m] | -2.98
Cc1ccc(Nc2ncc3c(n2)N(C)C(=O)N(c2cc(C(=O)N[C@H](C(=O)N4CCC[C@@H]4C(=O)NC(C)(C)C(=O)N[C@@H](CC(C)C)C(=O)N(C)C)C(C)C)ccc2C)C3)cn1 [7b] (X1-V[dP][Aib]L-NMe2) | -0.76
Cc1ccc(Nc2ncc3c(n2)N(C)C(=O)N(c2cc(C(=O)N[C@H](C(=O)N4CCC[C@H]4C(=O)NC4(C(=O)N[C@@H](CC(C)C)C(=O)N(C)C)CCC4)C(C)C)ccc2C)C3)cn1 [7f] (X1-VP[Ac4c]L-NMe2) | -1.56
Cc1ccc(Nc2ncc3c(n2)N(C)C(=O)N(c2cc(C(=O)N[C@H](C(=O)N4CCC[C@H]4C(=O)NC(C)(C)C(=O)N[C@@H](CC(C)C)C(=O)N(C)C)C4CCCCC4)ccc2C)C3)cn1 [7s] (X1-[Chg]P[Aib]L-NMe2) | -1.44
Cc1ccc(Nc2ncc3c(n2)N(C)C(=O)N(c2cc(C(=O)N[C@@H](C(=O)N4CCC[C@@H]4C(=O)NC(C)(C)C(=O)N[C@H](CC(C)C)C(=O)N(C)C)C(C)C)ccc2C)C3)cn1 [7c] (X1-[dV][dP][Aib][dL]-NMe2) | -0.68
Cc1ccc(Nc2ncc3c(n2)N(C)C(=O)N(c2cc(NC(=O)c4ccc5c(c4)N(Cc4ccccc4)C(=O)[C@H](C)N=C5c4ccccc4)ccc2C)C3)cn1 [11d] | -2.47
Cc1ccc(Nc2ncc3c(n2)N(C)C(=O)N(c2cc(C(=O)N[C@@H](Cc4ccccc4)C(=O)N4CCC[C@H]4C(=O)NC(C)(C)C(=O)N[C@H](C(=O)N(C)C)C(C)C)ccc2C)C3)cn1 [7l] (X1-FP[Aib]V-NMe2) | -0.81
Cc1ccc(Nc2ncc3c(n2)N(C)C(=O)N(c2cc(NC(=O)c4ccc5c(c4)NC(=O)[C@@H](Cc4ccccc4)N=C5c4ccccc4)ccc2C)C3)cn1 [11f] | -1.73
Cc1ccc(Nc2ncc3c(n2)N(C)C(=O)N(c2cc(NC(=O)c4ccc5c(c4)N(Cc4ccccc4)C(=O)[C@H](CC(C)C)N=C5c4ccccc4)ccc2C)C3)cn1 [11b] | -1.43
Cc1ccc(Nc2ncc3c(n2)N(C)C(=O)N(c2cc(NC(=O)c4ccc5c(c4)NC(=O)[C@H](C)N=C5c4ccccc4)ccc2C)C3)cn1 [11c] | -2.93
Cc1ccc(Nc2ncc3c(n2)N(C)C(=O)N(c2cc(C(=O)N[C@H](C(=O)N4CCCC[C@H]4C(=O)NC(C)(C)C(=O)N[C@@H](CC(C)C)C(=O)N(C)C)C(C)C)ccc2C)C3)cn1 [7j] (X1-V[Pip][Aib]L-NMe2) | -1.74
CC[C@H](C)[C@H](NC(=O)c1ccc(C)c(N2Cc3cnc(Nc4ccc(C)nc4)nc3N(C)C2=O)c1)C(=O)N1CCC[C@H]1C(=O)NC(C)(C)C(=O)N[C@@H](CC(C)C)C(=O)N(C)C [7p] (X1-IP[Aib]L-NMe2) | -1.25
C=CCCC1=N[C@@H](CC(=O)Nc2ccc(C)c(N3Cc4cnc(Nc5ccc(C)nc5)nc4N(C)C3=O)c2)C(=O)N(Cc2ccccc2)c2ccccc21 [11q] | -1.75
